Here the recorded EC50 cAMP, DiscoveRx is given for each entry.
# STUDY TARGET: T1, rat VPAC2 receptor (rat, UniProt P35000 23-437)
# T1 sequence (looked up): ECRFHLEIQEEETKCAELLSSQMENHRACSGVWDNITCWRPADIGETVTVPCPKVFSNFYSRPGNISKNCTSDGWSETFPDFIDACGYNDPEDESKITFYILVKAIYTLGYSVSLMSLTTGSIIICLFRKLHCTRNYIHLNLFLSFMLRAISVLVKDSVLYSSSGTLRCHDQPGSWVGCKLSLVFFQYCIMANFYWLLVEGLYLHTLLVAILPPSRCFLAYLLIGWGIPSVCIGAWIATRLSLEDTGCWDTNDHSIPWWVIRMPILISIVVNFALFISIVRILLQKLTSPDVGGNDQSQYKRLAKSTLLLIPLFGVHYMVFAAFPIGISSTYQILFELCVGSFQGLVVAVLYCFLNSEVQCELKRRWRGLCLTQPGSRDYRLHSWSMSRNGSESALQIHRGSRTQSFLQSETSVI
# EXPERIMENTAL PROTOCOL: cell-based or functional assay
Where no end group is shown, it is not given here. [ ]: non-standard residue; d: D form. The star is where a group is joined. hArg = N=C(N)NCCCC[C@H](N)C(=O)O; Nle = CCCC[C@H](N)C(=O)O; Orn = NCCC[C@H](N)C(=O)O; Hexanoyl = CCCCCC(=O)*; Aib = CC(C)(N)C(=O)O
Give the quantity in nM, number only.

>  <BINDER>
Hexanoyl-HSDAVFTDNYTRLR[Aib]QVAAKKYLQSIKNKRYGGPSSGAPPPS (ends and bridges not checked) [P168]

>  <EC50 cAMP, DiscoveRx (nM)>
0.05

$$$$
>  <BINDER>
HSDAVFTDNYTXLRXQVAAXKYLQSIXXGGPSSGAPPPS (N-terminal hexanoyl (C6); Orn at 12; Aib at 15, 20; hR at 27, 28) [P335]

>  <EC50 cAMP, DiscoveRx (nM)>
0.05

$$$$
>  <BINDER>
Hexanoyl-HSDAVFTDNYTRLRQQVAAKKYLQSIKNKRYGGPSSGAPPPS [P177]

>  <EC50 cAMP, DiscoveRx (nM)>
0.1

$$$$
>  <BINDER>
Hexanoyl-HSDAVFTDNYTRL[hArg][Orn]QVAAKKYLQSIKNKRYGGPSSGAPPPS (ends and bridges not checked) [P308]

>  <EC50 cAMP, DiscoveRx (nM)>
0.09

$$$$
>  <BINDER>
Hexanoyl-HSDAVFTDNYTRLR[Aib]QIAA[Aib]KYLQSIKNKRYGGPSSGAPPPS (ends and bridges not checked) [P322]

>  <EC50 cAMP, DiscoveRx (nM)>
0.04

$$$$
>  <BINDER>
Hexanoyl-HSDAVFTDNYTRL[Aib]KQVAA[Aib]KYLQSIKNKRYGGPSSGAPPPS (ends and bridges not checked) [P242]

>  <EC50 cAMP, DiscoveRx (nM)>
0.46

$$$$
>  <BINDER>
Hexanoyl-HSDAVFTDQYTRLR[Aib]QVAA[Aib]KYLQSIKQKRYGGPSSGAPPPS (ends and bridges not checked) [P315]

>  <EC50 cAMP, DiscoveRx (nM)>
0.04

$$$$
>  <BINDER>
Hexanoyl-HSDAVFTDNYTRLK[Aib]QVAA[Aib]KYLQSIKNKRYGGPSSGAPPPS (ends and bridges not checked) [P318]

>  <EC50 cAMP, DiscoveRx (nM)>
0.09

$$$$
>  <BINDER>
Hexanoyl-HSDAVFTDNYTRLR[Aib]QLAA[Aib]KYLQSIKNKGGPSSGAPPPS (ends and bridges not checked) [P292]

>  <EC50 cAMP, DiscoveRx (nM)>
0.07

$$$$

get_value(item= Hexanoyl-HSDAVFTDNYTRLR[Aib]Q[Nle]AA[Aib]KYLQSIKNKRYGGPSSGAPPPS (ends and bridges not checked) [P325] , readout=EC50 cAMP, DiscoveRx) returns 0.04
